Experiment: Pharmacokinetic study, 3 mg/kg IV, 10 mg/kg PO and 10 mg/kg PO QD*3, plasma, liver and bone
Assay type: in vivo, mouse
Settings: female, C57BL/6J, mouse, bone (long bones), iv, 3 mg/kg, bone, IV, 48 h, individual animals; N/A: Below detection level; read-out: Bone 6641 IV concentration
measured.attribute: concentration at 48 h (ng/g)

                  compound_structure_string     measured_attribute  observed_measurement
0  O=C1Nc2ccc(-c3cc(C(F)(F)F)cc(C(F)(F)F)c3)cc2C(=O)N2CCN(C(=O)COc3ccc(OC(F)(F)F)cc3I)C[C@@H]12  concentration at 48 h                  3.84

* * *

Test: Pharmacokinetic study, 3 mg/kg IV, 10 mg/kg PO and 10 mg/kg PO QD*3, plasma, liver and bone
Format: in vivo, mouse
Details: female, C57BL/6J, mouse, bone (long bones), po, 10 mg/kg, bone, PO, 0.5 h, individual animals; read-out: Bone 6641 PO concentration
measured.attribute: concentration at 0.5 h (ng/g)

                  compound_structure_string      measured_attribute  quantity_unit  observed_measurement
0  O=C1Nc2ccc(-c3cc(C(F)(F)F)cc(C(F)(F)F)c3)cc2C(=O)N2CCN(C(=O)COc3ccc(OC(F)(F)F)cc3I)C[C@@H]12  concentration at 0.5 h           ng/g                  27.1

* * *

Test: Pharmacokinetic study, single 30 mg/kg IP dose, plasma, liver and bone
Assay type: in vivo, mouse
Settings: female, C57BL/6J, mouse, liver, ip, 30 mg/kg, Time 4 h; individual values (1)-(3)
measured.attribute: concentration at 4 h (ng/g)

>>> df
                  compound_structure_string    measured_attribute  observed_measurement
0  O=C1Nc2ccc(-c3cc(C(F)(F)F)cc(C(F)(F)F)c3)cc2C(=O)N2CCN(C(=O)COc3ccc(OC(F)(F)F)cc3I)C[C@@H]12  concentration at 4 h                 11000

* * *

Test: Pharmacokinetic study, single 30 mg/kg IP dose, plasma, liver and bone
Type: in vivo, mouse
Details: female, C57BL/6J, mouse, liver, ip, 30 mg/kg, IP, Time 12 h; individual values (1)-(3); read-out: Liver concentration
measured.attribute: concentration at 12 h (ng/g)

In [3]: df
Out[3]:
                                   compound     measured_attribute  quantity_unit  observed_measurement
0  O=C1Nc2ccc(-c3cc(C(F)(F)F)cc(C(F)(F)F)c3)cc2C(=O)N2CCN(C(=O)COc3ccc(OC(F)(F)F)cc3I)C[C@@H]12 [compound 6641]  concentration at 12 h           ng/g                 13600

* * *

Assay: Pharmacokinetic study, 3 mg/kg IV, 10 mg/kg PO and 10 mg/kg PO QD*3, plasma, liver and bone
Format: in vivo, mouse
Conditions: female, C57BL/6J, mouse, bone (long bones), po, 10 mg/kg, bone, PO (QD*3), 0.25 h, individual animals; read-out: Bone 6641 PO (QD*3) concentration
measured.attribute: concentration at 0.25 h (ng/g)

>>> df
                                   compound  observed_measurement
0  O=C1Nc2ccc(-c3cc(C(F)(F)F)cc(C(F)(F)F)c3)cc2C(=O)N2CCN(C(=O)COc3ccc(OC(F)(F)F)cc3I)C[C@@H]12 [compound 6641]                  19.5

Measured values drawn from paper PMC9636434 for this set.
